Cited source for all entries: patent US20120040956A1

# System: HIF-1
# experiment_summary: HIF-1-dependent luciferase reporter gene activity in 293T cells under hypoxia
# Type: cell-based, human
# details: Homo sapiens, HEK-293T, 1 h pretreatment, hypoxia 8 h, read-out: IC50, HIF-1 luciferase inhibitory activity
readout_name: pIC50
One number for each entry, as −log10 of the molar value.

Short answer please: pIC50, HIF-1, entry CNCCOc1ccc2c(c1)OC1(c3ccc(Cl)cc3)C(c3ccccc3)CC(O)C21O (centres unmarked) 7.74

Turning to the following compound.
Short answer please: pIC50, HIF-1, entry OC1CC(c2ccccc2)C2(c3ccc(Cl)cc3)Oc3cc(OCCN4CCCC4)ccc3C12O (centres unmarked) 7.72

###

# System: HUVEC
# experiment_summary: Spheroid-based angiogenesis assay, Deferoxamine (hypoxia) induced HUVEC sprouting
# Assay type: cell-based, human
# details: Homo sapiens, HUVEC; Deferoxamine 100 μM, 24 hours, collagen matrix; read-out: IC50, hypoxia induced EC (HUVEC) sprouting
readout_name: IC50 (nM)
One number for each entry, in nM.

Report IC50 for CNCCOc1ccc2c(c1)OC1(c3ccc(Cl)cc3)C(c3ccccc3)CC(O)C21O (stereo not shown) please. 13
